Exercise: for every item that follows, state its recorded CC50 at 3 days.
Assay: Cytotoxicity in TZM-bl cells
Format: cell-based
Conditions: human

Using known records, supply CC50 at 3 days for Cc1ccnc2c1NC(=O)c1cccnc1N2C1CC1 [NVP, nevirapine, reference compound]
> 200 µM

Using known records, supply CC50 at 3 days for CCc1c(CC2CCCCC2)nc(SCc2cc(-c3ccc(O)cc3)[nH]n2)[nH]c1=O [I-11]
77.1 µM

Using known records, supply CC50 at 3 days for CCc1c(CC2CCCCC2)nc(SCc2cc(-c3ccc(SC)cc3)[nH]n2)[nH]c1=O [I-12]
> 200 µM

---

Assay: in vivo
Conditions: male, Sprague-Dawley, rat, plasma, iv, 1 mg/kg
measurementName: Vd (L/kg)
Field format: number, assumed L/kg, no unit text.

Using known records, supply Vd for CCc1c(CC2CCCCC2)nc(SCc2cc(-c3ccc(O)cc3)[nH]n2)[nH]c1=O [I-11]
0.213
